Origin of values: ChEMBL document CHEMBL1131540

- subject of test: Mu-type opioid receptor (Cavia porcellus, UniProt P97266)
- Sequence (P97266 whole entry): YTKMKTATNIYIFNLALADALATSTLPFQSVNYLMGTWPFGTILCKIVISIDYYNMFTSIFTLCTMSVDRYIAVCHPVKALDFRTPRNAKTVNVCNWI
Assign labels as follows, please: Satisfied for IC50 below 20 nM; Not satisfied for IC50 equal to or exceeding 20 nM.

compound: C[C@H](c1ccccc1)[C@H](NC(=O)CNC(=O)[C@@H](C)NC(=O)[C@@H](N)Cc1ccc(O)cc1)C(=O)NNC(=O)[C@@H](NC(=O)CNC(=O)[C@@H](C)NC(=O)[C@@H](N)Cc1ccc(O)cc1)[C@H](C)c1ccccc1 (stereo in doubt)
classification: Not satisfied

Query: Strictly below 20 nM: is that where IC50 of C[C@@H](NC(=O)[C@@H](N)Cc1ccc(O)cc1)C(=O)NCC(=O)N[C@@H](Cc1ccc2ccccc2c1)C(=O)NNC(=O)[C@H](Cc1ccc2ccccc2c1)NC(=O)CNC(=O)[C@@H](C)NC(=O)[C@@H](N)Cc1ccc(O)cc1 sits?
Reply: Satisfied

Query: Strictly below 20 nM: is that where IC50 of C[C@@H](NC(=O)[C@@H](N)Cc1ccc(O)cc1)C(=O)NCC(=O)N[C@@H](Cc1c(F)c(F)c(F)c(F)c1F)C(=O)NNC(=O)[C@H](Cc1c(F)c(F)c(F)c(F)c1F)NC(=O)CNC(=O)[C@@H](C)NC(=O)[C@@H](N)Cc1ccc(O)cc1 sits?
Reply: Satisfied

Query: Strictly below 20 nM: is that where IC50 of CC(NC(=O)[C@@H](N)Cc1ccc(O)cc1)C(=O)NCC(=O)N[C@H](C(=O)NNC(=O)[C@@H](NC(=O)CNC(=O)C(C)NC(=O)[C@@H](N)Cc1ccc(O)cc1)[C@@H](C)c1ccccc1)[C@@H](C)c1ccccc1 (single isomer, unassigned) sits?
Reply: Not satisfied

Query: Strictly below 20 nM: is that where IC50 of C[C@@H](NC(=O)[C@@H](N)Cc1ccc(O)cc1)C(=O)NCC(=O)N[C@@H](Cc1cccc2ccccc12)C(=O)NNC(=O)[C@H](Cc1cccc2ccccc12)NC(=O)CNC(=O)[C@@H](C)NC(=O)[C@@H](N)Cc1ccc(O)cc1 sits?
Reply: Satisfied
